Assay: log P by HPLC (OECD Guideline 117), method [a] acidic range
Type: physicochemical
Conditions: HPLC, method [a] acidic range
READOUT: logP[a]

INSERT INTO assay_data (molecule, result) VALUES
  ('Cc1cc(F)c(-n2nc([S+]([O-])CC(F)F)n(C3CC3)c2=O)cc1[S+]([O-])CC(F)(F)F (centres unmarked) [Example 229]', 2.10),
  ('Cc1cc(F)c(-n2nnn(CC(F)(F)C(F)(F)F)c2=O)cc1SCC(F)(F)F [Example 444]', 4.09),
  ('COc1cc(F)c(-n2nc(OCC(C)(C)C)n(C3CC3)c2=O)cc1[S+]([O-])CC(F)(F)F (centres unmarked) [Example 403]', 3.50),
  ('Cc1cc(F)c(-n2ncn(-c3ccccc3)c2=O)cc1SCC(F)(F)F [Example 351]', 3.43),
  ('CCCCOc1nn(-c2cc(SCC(F)(F)F)c(C)cc2F)c(=O)n1C [Example 128]', 4.11),
  ('COC1=CC(=O)N(c2cc([S+]([O-])CC(F)(F)F)c(C)cc2Cl)C1 (centres unmarked) [Example 318]', 1.99),
  ('C=CCn1c(SCCC)nn(-c2cc([S+]([O-])CC(F)(F)F)c(C)cc2F)c1=O (centres unmarked) [Example 430]', 3.18),
  ('CC=Cc1nn(-c2cc([S+]([O-])CC(F)(F)F)c(C)cc2F)c(=O)n1C1CC1 (racemic) [Example 82]', 2.48),
  ('Cc1cc(F)c(N2CC(OCc3ccccc3)=CC2=O)cc1[S+]([O-])CC(F)(F)F (centres unmarked) [Example 323]', 2.87),
  ('Cc1ccc(-n2nc(OC3CCCCC3)n(C)c2=O)cc1SCC(F)(F)F [Example 155]', 5.22),
  ('COc1nn(-c2cc(SCC(F)(F)F)c(C)cc2Cl)c(=O)n1C1CC1 [Example 116]', 3.20),
  ('CCOCc1nn(-c2cc(SCC(F)(F)F)c(C)cc2F)c(=O)n1C1CC1 [Example 73]', 3.33),
  ('Cc1cc(F)c(-n2nc(Br)n(C(C)(C)C)c2=O)cc1SCC(F)(F)F [Example 438]', 4.24),
  ('Cc1cc(F)c(-n2nc(SCC(F)(F)F)n(C3CC3)c2=O)cc1SCC(F)(F)F [Example 254]', 3.89),
  ('CCc1nn(-c2cc([S+]([O-])CC(F)(F)F)c(C)cc2F)c(=O)n1C1CC1 (racemic) [Example 78]', 2.20),
  ('COc1cc(F)c(-n2nc(OCC(F)(F)F)n(C3CC3)c2=O)cc1SCC(F)(F)F [Example 188]', 3.49),
  ('COCc1nn(-c2cc(SCC(F)(F)F)c(C)cc2F)c(=O)n1N [Example 198]', 2.28);
